# pKd annotations
# target entity: ARHGEF12, Q9NZN5-2
# Sequence (Q9NZN5 other isoform, or with tags, fused parts or gaps): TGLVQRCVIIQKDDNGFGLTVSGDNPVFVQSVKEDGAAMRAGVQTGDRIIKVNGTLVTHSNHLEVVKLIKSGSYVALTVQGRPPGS
# experiment: holdup assay
# Parameters: key: below the threshold = too weak to quantify, mostly under pKd 3.1 to 4
# settings: plain residues with an end cap or a label only (N-terminal biotin on a linker: ado-ado)

Recorded pKd, per entry:
LRSPRTPSEV [OR10G3, Q8NGC4] = 3.65
TLPRKRMSSI [GPRC6A, Q5T6X5] = 3.54

Here is the next item to consider.
## Task # get_value(readout='pKd', item= TKGPRGPTRV [SAPCD1, Q5SSQ6] )
## Result 4.24
